The values you see were collected from patent US20140213531A1.

system: Urokinase from human urine (human, UniProt P00749 21-431, limits assumed)
method-notes: cell-based or functional assay
measured-metric: % inhibition at 100 µM (%)
# value in %; strip the unit string

Challenge: Requested read-out: % inhibition at 100 µM. Entry: XCTKSDPPICY (HELM PEPTIDE1{[Nle].C.T.K.S.D.P.P.I.C.Y.[dP].P}$PEPTIDE1,PEPTIDE1,2:R3-10:R3|PEPTIDE1,PEPTIDE1,1:R1-13:R2$$$V2.0; SMILES CCCC[C@@H]1NC(=O)[C@@H]2CCCN2C(=O)[C@H]2CCCN2C(=O)[C@H](Cc2ccc(O)cc2)NC(=O)[C@@H]2CSSC[C@H](NC1=O)C(=O)N[C@@H]([C@@H](C)O)C(=O)N[C@@H](CCCCN)C(=O)N[C@@H](CO)C(=O)N[C@@H](CC(=O)O)C(=O)N1CCC[C@H]1C(=O)N1CCC[C@H]1C(=O)N[C@@H]([C@@H](C)CC)C(=O)N2) [Example 44]
Response given: 14

More entries:
Challenge: # lookup: % inhibition at 100 µM of FCTKSDPPICN (HELM PEPTIDE1{F.C.T.K.S.D.P.P.I.C.N.[dP].P}$PEPTIDE1,PEPTIDE1,2:R3-10:R3|PEPTIDE1,PEPTIDE1,1:R1-13:R2$$$V2.0; SMILES CC[C@H](C)[C@@H]1NC(=O)[C@@H]2CCCN2C(=O)[C@@H]2CCCN2C(=O)[C@H](CC(=O)O)NC(=O)[C@H](CO)NC(=O)[C@H](CCCCN)NC(=O)[C@H]([C@@H](C)O)NC(=O)[C@@H]2CSSC[C@H](NC1=O)C(=O)N[C@@H](CC(N)=O)C(=O)N1CCC[C@@H]1C(=O)N1CCC[C@H]1C(=O)N[C@@H](Cc1ccccc1)C(=O)N2) [Example 3]
Response given: 4
